Collected GI50 values appear next to each entry.
Tested on: NCI-H23
Protocol summary: NCI in vitro cancer screen, Non-Small Cell Lung Cancer
Type: cell-based, human
Measurement conditions: Homo sapiens, NCI-H23
Give the value, in units of µM, as a plain number.

Illustrative cases are given below, each with its answer.
[[record]]
molecule_smiles = "CC(C)=CCOc1cc(O)cc(/C=C/c2ccc(O)c(O)c2)c1"
target = "NCI-H23"
unit_abbrev = "µM"
result_value = 3.42

[[record]]
molecule_smiles = "COc1cc(/C=C/c2cc(O)cc(OC)c2CC=C(C)C)ccc1O"
target = "NCI-H23"
unit_abbrev = "µM"
result_value = 0.28

[[record]]
molecule_smiles = "COc1cc(O)cc(/C=C/c2ccc(O)c(O)c2)c1CC=C(C)C"
target = "NCI-H23"
unit_abbrev = "µM"
result_value = 1.43

[[record]]
molecule_smiles = "COc1cc(/C=C/c2cc(O)c(CC=C(C)C)c(O)c2)ccc1O"
target = "NCI-H23"
unit_abbrev = "µM"
result_value = 5.66

[[record]]
molecule_smiles = "CC(C)=CCc1c(O)cc(/C=C/c2ccc(O)cc2)c(CC=C(C)C)c1O"
target = "NCI-H23"
unit_abbrev = "µM"
result_value = 3.38

[[record]]
molecule_smiles = "CC(C)=CCc1c(O)cc(/C=C/c2ccc(O)c(O)c2)c(CC=C(C)C)c1O"
target = "NCI-H23"
unit_abbrev = "µM"
result_value = 1.81


Data request: Please list GI50 recorded for the molecule COc1cc(/C=C/c2cc(O)cc(OCC=C(C)C)c2)ccc1O
Data returned: 2.89

All values here come from patent US10696615B2.
